Taken from ChEMBL document CHEMBL1201862.

Test system: LXFL 529
Assay: NCI tumour cell line growth inhibition, 48 h
Activity calls are given as the source filed them. No stated cut-off is given here; in the data, active = GI50 up to about 1.1 µM and inactive = higher.
READOUT TYPE: GI50

>>> test_result("CCOC(=O)/N=c1/nc(N(C)C)ss1")
"> 100 µM (inactive)"
>>> test_result("[O-][Cl+3]([O-])([O-])[O-].c1ccc(-c2[o+]c(-c3ccccc3)c(-c3ccccc3)c(-c3ccccc3)c2-c2ccccc2)cc1")
"> 100 µM (inactive)"
>>> test_result("COC12C=CC(CC1)c1c(O)ccc(O)c12 (configuration not stated)")
"25.4 µM (inactive)"
>>> test_result("O=C(O)C1OC(Oc2cc(O)c3c(=O)cc(-c4ccc(O)cc4)oc3c2)C(O)C(O)C1O (configuration not stated)")
"> 100 µM (inactive)"
>>> test_result("CC(=O)c1ccccc1NC(=O)C(=O)C(C(=O)c1ccccc1-c1ccccc1)C1OC(=O)c2ccccc21 (configuration not stated)")
"15.5 µM (inactive)"
>>> test_result("O=C(O)CCCc1cc2c(s1)-c1cccc3cccc-2c13")
"35 µM (inactive)"
>>> test_result("NC(=S)N/N=C/c1nccc2ccccc12")
"1.96 µM (inactive)"
>>> test_result("O=C1C=C(Nc2ccc(Cl)cc2Cl)c2ccccc2C1=O")
"27.2 µM (inactive)"
>>> test_result("Cc1ccc(Cn2c(C)nc3c2C(=O)c2ccccc2C3=O)cc1")
"1.72 µM (inactive)"
>>> test_result("CC(C)C1CNC2N1C(=O)C2(C)OCc1ccccc1 (configuration not stated)")
"> 100 µM (inactive)"
>>> test_result("CC(=O)NNc1nc(C)c(C(=O)/C=C/c2ccc(/C=C/C(=O)c3sc(NNC(C)=O)nc3C)cc2)s1")
"> 100 µM (inactive)"
>>> test_result("COc1cc2nc(-c3cccc(N(C)C)c3)cc(O)c2cc1OC")
"5.22 µM (inactive)"
>>> test_result("Cc1cc(Cl)ccc1NC1=NC(=O)C(CC(=O)Nc2ccc(Cl)cc2Cl)S1 (configuration not stated)")
"> 100 µM (inactive)"
>>> test_result("C=CC/N=C1\\N=C(C)C(C(=O)OCC)S1 (configuration not stated)")
"> 100 µM (inactive)"
>>> test_result("CC(C)N(C(=O)C12CC3CC(CC(C3)C1)C2)C(C)C")
"> 50 µM (inactive)"
>>> test_result("Cc1ccc(NC(=O)C(=O)Cc2cccc[n+]2[O-])cc1C")
"> 100 µM (inactive)"
>>> test_result("CC(=O)Nc1ccc(S(=O)(=O)N/N=C(\\C)CN2C(=O)c3ccccc3C2=O)cc1")
"> 100 µM (inactive)"
>>> test_result("Nc1ccc(O)c2c1C(=O)c1c(N)ccc(O)c1C2=O")
"> 100 µM (inactive)"
>>> test_result("COc1cc(Nc2c3ccccc3nc3ccccc23)ccc1NS(C)(=O)=O")
"4.8 µM (inactive)"
>>> test_result("CC(C)(c1ccc(Oc2ccc(C#N)c(C#N)c2)cc1)c1ccc(Oc2ccc(C#N)c(C#N)c2)cc1")
"> 10 µM (inactive)"
>>> test_result("C#C[C@@H](CCCC)OC(=O)N[C@H](C)c1ccccc1")
"43.1 µM (inactive)"
>>> test_result("O=c1cc(-c2ccccc2)[nH]c2cc(Cl)cc(Cl)c12")
"67.8 µM (inactive)"
>>> test_result("COc1ccc(CNc2nc3cc(C(F)(F)F)ccc3nc2C)cc1OC")
"35.8 µM (inactive)"
>>> test_result("CC(C)C1=CC(=O)C(C)(C2=NC(C)(C)CO2)c2ccccc21 (configuration not stated)")
"94.4 µM (inactive)"
>>> test_result("Cc1ccc(CC(C)N)cc1 (configuration not stated)")
"> 100 µM (inactive)"
>>> test_result("O=CC[C@H]1C(=O)C[C@@H]2CCC[C@@H]21")
"48 µM (inactive)"
>>> test_result("CCOC(=O)COc1ccc(OCC(=O)OCC)c2c1C(=O)CCCC2=O")
"> 100 µM (inactive)"
